Molecular target: 11βHSD1 (Homo sapiens, UniProt P28845)
Sequence (P28845 whole entry): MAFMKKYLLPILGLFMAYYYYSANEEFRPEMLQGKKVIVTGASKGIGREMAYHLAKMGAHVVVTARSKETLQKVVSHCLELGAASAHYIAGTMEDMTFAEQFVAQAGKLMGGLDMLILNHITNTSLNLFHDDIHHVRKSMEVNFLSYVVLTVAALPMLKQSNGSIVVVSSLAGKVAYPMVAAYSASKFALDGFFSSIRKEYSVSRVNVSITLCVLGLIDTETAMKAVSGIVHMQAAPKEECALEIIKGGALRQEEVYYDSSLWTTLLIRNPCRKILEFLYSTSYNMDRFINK
REPORTED_PROPERTY: IC50 (µM)

# COMPOUND, TEST_SYSTEM, IC50 / µM
records = [
    ("O=C(NC1C2CC3CC1CC(O)(C3)C2)C1(CCOc2ccc(Cl)cc2Cl)CC1 (centres unmarked) [Example 2-5]", "11βHSD1 (Homo sapiens, UniProt P28845)", 0.004),
    ("O=C(CCCOc1ccccc1)NC1C2CC3CC1CC(O)(C3)C2 (centres unmarked) [Example 1-39]", "11βHSD1 (Homo sapiens, UniProt P28845)", 0.05),
    ("O=C(CCCOc1ccc(Cl)cc1Cl)N1CC2CCC(CC2)C1 [Example 1-15]", "11βHSD1 (Homo sapiens, UniProt P28845)", 0.052),
]

A = CN(C(=O)CCCOc1ccc(Cl)cc1Cl)C1CC2CC1CC2O (centres unmarked) [Example 1-64]
B = CN(C(=O)CCCOc1ccc(Cl)cc1Cl)C1CCCC(O)C1 (centres unmarked) [Example 1-61]
Task item: Form field 'greater IC50' accepts A or B ; which applies? Reply briefly: the label of your chosen item.
Reply: B
(B: 0.056 µM, A: 0.002 µM)

1 = COC(=O)C12CC3CC(CN(C(=O)CCCOc4ccc(Cl)cc4Cl)C(C3)C1)C2 (centres unmarked) [Example 1-66]
2 = CN(C(=O)CCCOc1ccc(Cl)cc1Cl)[C@H]1CCCC[C@@H]1CO [Example 1-62]
Task item: // returns 1 or 2 , whichever has the lower IC50 Reply briefly: the label of your chosen item.
Reply: 1

I = CN(C(=O)CCCOc1ccc(Cl)cc1Cl)C1CCC(S(=O)(=O)N(C)C)CC1 (centres unmarked) [Example 1-70]
II = CN(C(=O)CCCOc1ccc(Cl)cc1Cl)C1CCC(S(=O)(=O)N(C)C)CC1 (centres unmarked) [Example 1-71]
III = O=C(CCCOc1ccc(Cl)cc1Cl)N(C1CC1)C1C2CC3CC1CC(O)(C3)C2 (centres unmarked) [Example 1-18]
Task item: Order the entries by their reported IC50, beginning at the minimum. Put the labels in the requested order and list them out.
Reply: II, III, I
(II: 0.021 µM, III: 0.209 µM, I: 0.479 µM)

1 = O=C(CCCOc1ccccn1)NC1C2CC3CC1CC(O)(C3)C2 (centres unmarked) [Example 1-87]
2 = CN(C(=O)CCCOc1ccccc1)C1C2CC3CC1CC(O)(C3)C2 (centres unmarked) [Example 1-43]
3 = CN(C(=O)CCCOc1ccc(Cl)cc1Cl)[C@H]1CCCC[C@@H]1O [Example 1-57]
4 = CN(C(=O)CCCOc1ccc(Cl)cc1Cl)C1C2CC3CC1CC(O)(C3)C2 (centres unmarked) [Example 1-32]
5 = O=C(CCCOc1ccccc1)NC1C2CC3CC1CC(CO)(C3)C2 (centres unmarked) [Example 1-54]
Task item: // sort entries: IC50, high to low Put the labels in the requested order and list them out.
Reply: 3, 1, 2, 5, 4
(3: 0.628 µM, 1: 0.227 µM, 2: 0.058 µM, 5: 0.01 µM, 4: 0.004 µM)

====

Target: UniProt:P28845
pIC50: −log10 of the molar value.
REPORTED_PROPERTY: pIC50

Observe how each entry below is paired with its result.
# COMPOUND, pIC50
measured = [
    ("O=C(CCCOc1ccc(Cl)cc1Cl)N1CC2CC1CC2O (centres unmarked) [Example 1-24]", 7.70),
    ("O=C(CCCOc1ccc(Cl)cc1Cl)N1CC2CC3CC1CC(C(=O)O)(C3)C2 (centres unmarked) [Example 1-67]", 7.60),
    ("CCN(C(=O)CCCOc1ccc(Cl)cc1Cl)C1C2CC3CC1CC(O)(C3)C2 (centres unmarked) [Example 1-33]", 8.15),
    ("COC(=O)C12CC3CC(CC(NC(=O)CCCOc4ccc(Cl)cc4Cl)(C3)C1)C2 [Example 1-30]", 8.00),
    ("O=C(CCCOc1ccccc1)N1CC2CCC1C2O (centres unmarked) [Example 1-48]", 5.97),
    ("CN(C(=O)CCCOc1ccc(Cl)cc1Cl)C1CC2CC1CC2CO (centres unmarked) [Example 1-84]", 7.52),
]

1 = CC(C)(CCOc1ccc(Cl)cc1Cl)C(=O)N1C2CCC1CC(O)C2 (centres unmarked) [Example 2-3]
2 = CN(C(=O)CCCOc1ccc(Cl)cc1Cl)C1C2CC3CC1CC(CO)(C3)C2 (centres unmarked) [Example 1-65]
3 = CN(C(=O)CCCOc1ccc(Cl)cc1Cl)C1CCC(CO)CC1 (centres unmarked) [Example 1-60]
Task item: Order the entries by their reported pIC50, beginning at the minimum. Put the labels in the requested order and list them out.
Reply: 1, 2, 3
(1: 6.69, 2: 8.40, 3: 9.00)
